System: CP262
Test: qHTS profiling for inhibitors of Plasmodium falciparum proliferation (AID 504749); note: nearly all actives have a fitted effect of over 60% in size
Conditions: P. falciparum in erythrocytes, SYBR Green DNA, 72 h; series mostly up to 12.8 µM
Results filed as inconclusive are left out. Activity calls are given as the source filed them. Calls come from the whole dose curve; as a rule, active = well fitted inhibition curve with a large enough effect; inconclusive = small, poorly fitted or top-dose-only effect; inactive = flat fitted curve, though single readings scatter.
Outcomes: active, inactive

[[record]]
compound = "C[C@@H]1C[C@H]2[C@@H]3C[C@H](F)C4=CC(=O)C=C[C@@]4(C)[C@]3(F)[C@H](O)C[C@]2(C)[C@@]1(O)C(=O)CO"
assay_target = "CP262"
category_label = "inactive"

[[record]]
compound = "COc1cc(N)c(Cl)cc1C(=O)N[C@H]1CCN(CCCOc2ccc(F)cc2)C[C@H]1OC"
assay_target = "CP262"
category_label = "active"

[[record]]
compound = "O=C(OC[C@@H](O)CO)c1ccccc1Nc1ccnc2cc(Cl)ccc12"
assay_target = "CP262"
category_label = "inactive"

[[record]]
compound = "CC1CCC(C(C)C)C(=O)C1 (stereo not drawn)"
assay_target = "CP262"
category_label = "inactive"

[[record]]
compound = "COc1ccc2cc1Oc1ccc(cc1)CC1c3c(cc4c(c3Oc3cc5c(cc3OC)CCN(C)C5C2)OCO4)CCN1C (stereo not drawn)"
assay_target = "CP262"
category_label = "active"

[[record]]
compound = "CC(C)C1CCC(C(=O)NC(Cc2ccccc2)C(=O)O)CC1 (stereo not drawn)"
assay_target = "CP262"
category_label = "inactive"

[[record]]
compound = "C[C@@H]1O[C@H](O[C@@H]2\\C=C/C=C\\C=C/C=C\\C[C@H](C)OC(=O)/C=C\\[C@H]3O[C@@H]3C[C@H](O)C[C@]3(O)C[C@@H](O)[C@@H](C(=O)O)[C@H](C2)O3)[C@@H](O)[C@H](N)[C@@H]1O (stereo in doubt)"
assay_target = "CP262"
category_label = "inactive"

[[record]]
compound = "CC[C@@]12CCCN3CCc4c(n(c5ccccc45)[C@](O)(C(=O)OC)C1)C32 (stereo partly drawn)"
assay_target = "CP262"
category_label = "inactive"

